Tested on: L1210
assay remarks: Cytostatic activity against mouse L1210 cells after 2 days by coulter ZI particle counting analysis
Assay type: functional, cell-based
condition parameters: L1210, 48 h
# key: entry, value: IC50
measured quantity: IC50

| compound | system | test value |
| --- | --- | --- |
| CCOP(=O)(CCCCn1cc(Cn2ccc(=O)[nH]c2=O)nn1)OCC | L1210 | > 200 µM |
| CCOP(=O)(CCn1cc(Cn2cnc3cc(C)c(C)cc32)nn1)OCC | L1210 | ≥ 200 µM |
| CCOP(=O)(CCCn1cc(Cn2c(Cl)nc3c2c(=O)n(C)c(=O)n3C)nn1)OCC | L1210 | > 200 µM |
| CCOP(=O)(Cn1cc(Cn2ccccc2=O)nn1)OCC | L1210 | > 200 µM |
| CCOP(=O)(CC(O)Cn1cc(Cn2ncc(=O)[nH]c2=O)nn1)OCC (stereo unspecified) | L1210 | > 200 µM |
| CCOP(=O)(CCCCn1cc(Cn2cnc3c2c(=O)n(C)c(=O)n3C)nn1)OCC | L1210 | > 200 µM |
| Nc1ncnc2c1ncn2Cc1cn(CCCCP(=O)(O)O)nn1 | L1210 | > 200 µM |
| CCOP(=O)(OCC)C(O)CCn1cc(Cn2ccc(=O)[nH]c2=O)nn1 (stereo unspecified) | L1210 | > 200 µM |
| CCOP(=O)(Cn1cc(Cn2cnc3c2c(=O)n(C)c(=O)n3C)nn1)OCC | L1210 | > 200 µM |
| CCOP(=O)(CCCCn1cc(Cn2ccccc2=O)nn1)OCC | L1210 | > 200 µM |
| CCOP(=O)(OCC)C(O)Cn1cc(Cn2ncc(=O)[nH]c2=O)nn1 (stereo unspecified) | L1210 | > 200 µM |

Data origin: ChEMBL document CHEMBL3085765
